- Method summary: Cmax in Wistar rat plasma at 10 mg/kg, po by HPLC analysis
- Assay type: ADME, organism-based
- Parameters: dose 10 mg/kg, route oral
Measured endpoint: Cmax (ng/mL)

smi=CCCCC1=NC2(CCCC2)C(=O)N1Cc1ccc2c(ccn2-c2ccccc2-c2nnn[nH]2)c1 result=856

====

- Method summary: Cmax in Wistar rat kidney at 10 mg/kg, po by HPLC analysis
- Format: ADME, organism-based
- Design: dose 10 mg/kg, route oral
Measured endpoint: Cmax (ng/mL)

smi=CCCCC1=NC2(CCCC2)C(=O)N1Cc1ccc2c(ccn2-c2ccccc2-c2nnn[nH]2)c1 measured_endpoint=Cmax result=180

Value source: ChEMBL document CHEMBL3872205
